Target: RSV L+P (Human respiratory syncytial virus A, UniProt P28887)
Construct: Biochemical activity of 1 and 22 against full-length RSV L+P; Twin-Strep-tag (N); made in house; host or cells: Sf9 insect cells (baculovirus, pFastBac Dual)
Sequence (P03421 whole entry): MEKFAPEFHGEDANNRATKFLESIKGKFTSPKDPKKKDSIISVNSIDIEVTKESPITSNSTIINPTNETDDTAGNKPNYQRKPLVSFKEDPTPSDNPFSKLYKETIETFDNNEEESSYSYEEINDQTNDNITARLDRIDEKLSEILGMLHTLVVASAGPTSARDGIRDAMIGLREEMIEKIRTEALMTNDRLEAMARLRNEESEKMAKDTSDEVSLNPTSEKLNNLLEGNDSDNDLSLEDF
Sequence (P28887 whole entry): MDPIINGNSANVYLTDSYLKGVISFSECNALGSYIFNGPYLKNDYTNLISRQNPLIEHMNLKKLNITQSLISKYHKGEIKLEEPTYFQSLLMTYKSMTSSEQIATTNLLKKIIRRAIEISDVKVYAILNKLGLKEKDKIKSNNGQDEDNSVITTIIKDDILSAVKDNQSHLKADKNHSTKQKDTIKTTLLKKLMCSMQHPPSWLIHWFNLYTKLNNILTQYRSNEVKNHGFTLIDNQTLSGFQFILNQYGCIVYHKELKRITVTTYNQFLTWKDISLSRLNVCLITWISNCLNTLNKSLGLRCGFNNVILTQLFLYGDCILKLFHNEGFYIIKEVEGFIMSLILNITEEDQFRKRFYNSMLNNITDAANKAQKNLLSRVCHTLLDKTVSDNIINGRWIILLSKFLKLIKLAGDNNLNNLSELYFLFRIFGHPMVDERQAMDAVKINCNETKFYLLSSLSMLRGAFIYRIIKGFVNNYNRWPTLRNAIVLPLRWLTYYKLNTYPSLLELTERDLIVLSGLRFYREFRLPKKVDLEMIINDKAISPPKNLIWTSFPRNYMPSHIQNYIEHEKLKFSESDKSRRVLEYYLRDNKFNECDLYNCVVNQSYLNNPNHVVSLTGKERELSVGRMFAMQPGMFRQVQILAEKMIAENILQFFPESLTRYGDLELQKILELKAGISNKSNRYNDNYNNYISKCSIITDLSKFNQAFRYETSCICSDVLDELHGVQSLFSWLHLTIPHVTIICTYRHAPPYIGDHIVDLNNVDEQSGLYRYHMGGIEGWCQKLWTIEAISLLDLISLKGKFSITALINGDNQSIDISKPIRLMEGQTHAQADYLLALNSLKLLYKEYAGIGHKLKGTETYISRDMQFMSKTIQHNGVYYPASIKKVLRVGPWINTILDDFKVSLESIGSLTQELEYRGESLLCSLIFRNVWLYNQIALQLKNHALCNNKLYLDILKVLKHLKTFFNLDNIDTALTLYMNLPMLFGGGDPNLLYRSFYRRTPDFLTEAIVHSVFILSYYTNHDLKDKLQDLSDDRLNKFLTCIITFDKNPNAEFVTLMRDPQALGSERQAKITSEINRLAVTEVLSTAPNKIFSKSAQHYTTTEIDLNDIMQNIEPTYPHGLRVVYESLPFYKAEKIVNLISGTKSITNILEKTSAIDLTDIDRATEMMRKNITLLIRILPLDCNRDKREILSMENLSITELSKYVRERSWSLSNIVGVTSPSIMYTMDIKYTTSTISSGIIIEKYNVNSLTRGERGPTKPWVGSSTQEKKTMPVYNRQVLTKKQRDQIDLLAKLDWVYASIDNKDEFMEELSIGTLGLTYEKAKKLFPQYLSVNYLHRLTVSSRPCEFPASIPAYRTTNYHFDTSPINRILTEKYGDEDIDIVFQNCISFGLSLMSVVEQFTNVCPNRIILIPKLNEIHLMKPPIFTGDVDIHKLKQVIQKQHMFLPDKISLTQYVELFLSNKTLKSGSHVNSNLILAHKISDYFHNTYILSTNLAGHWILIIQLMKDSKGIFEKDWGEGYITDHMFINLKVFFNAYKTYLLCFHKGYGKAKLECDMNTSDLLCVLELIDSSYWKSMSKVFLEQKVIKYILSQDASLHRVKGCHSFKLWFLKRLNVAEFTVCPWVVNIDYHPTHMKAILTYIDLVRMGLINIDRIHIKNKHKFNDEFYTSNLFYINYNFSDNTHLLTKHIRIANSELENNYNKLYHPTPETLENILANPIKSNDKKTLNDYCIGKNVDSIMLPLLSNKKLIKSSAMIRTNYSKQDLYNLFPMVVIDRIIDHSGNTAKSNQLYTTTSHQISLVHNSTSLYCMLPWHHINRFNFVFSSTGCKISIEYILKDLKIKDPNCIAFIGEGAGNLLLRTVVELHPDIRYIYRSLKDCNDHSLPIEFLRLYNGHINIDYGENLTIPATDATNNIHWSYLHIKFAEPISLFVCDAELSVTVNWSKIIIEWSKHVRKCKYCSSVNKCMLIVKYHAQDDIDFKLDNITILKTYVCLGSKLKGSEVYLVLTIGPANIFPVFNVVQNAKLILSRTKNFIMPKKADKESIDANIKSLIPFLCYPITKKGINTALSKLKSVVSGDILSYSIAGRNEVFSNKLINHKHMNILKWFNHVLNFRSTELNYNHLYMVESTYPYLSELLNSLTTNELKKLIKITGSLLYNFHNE
Assay: Pyrophosphate luminescence detection assay, full-length RSV L+P
Type: biochemical
Settings: pyrophosphate luminescence detection assay; read-out: Biochemical Emax
reported-metric: Emax

# annotated cases, reported Emax shown
COc1ccc2c(c1)C1(CCN(c3cnc(C#N)c(Cl)c3)CC1)C(=O)N2: 100%
CN1C(=O)C2(CCN(c3cnc(C#N)c(Cl)c3)CC2)c2cc(Br)ccc21: 105%
N#Cc1ncc(N2CCC3(CC2)C(=O)Nc2ccc(Cl)cc23)cc1Cl: 108%
CN1C(=O)C2(CCN(c3cnc(C#N)c(Cl)c3)CC2)c2cc(F)ccc21: 103%
N#Cc1ncc(N2CCC3(CC2)C(=O)N(c2cccnc2)c2ccc(F)cc23)cc1Cl: 107%
N#Cc1ncc(N2CCC3(CC2)C(=O)Nc2ccccc23)cc1Cl: 84.7%
Cc1cc(N2CCC3(CC2)C(=O)N(C)c2ccc(F)cc23)cc(F)c1C#N: 91.2%
COc1cc(N2CCC3(CC2)C(=O)N(C)c2ccc(F)cc23)cnc1C#N: 115%
N#Cc1ncc(N2CCC3(CC2)C(=O)N(CCF)c2ccc(F)cc23)cc1Cl: 90.7%
N#Cc1ncc(N2CCC3(CC2)C(=O)N(CC2CC2)c2ccc(F)cc23)cc1Cl: 89.4%

Working through the 6 molecules below one at a time, give Emax for each.
1. CN1C(=O)C2(CCN(c3ccc(C#N)c(Cl)n3)CC2)c2cc(F)ccc21
2. N#Cc1ncc(N2CCC3(CC2)C(=O)Nc2ccc(Br)cc23)cc1Cl
3. CN1C(=O)C2(CCN(c3cnc(N4CCOCC4)c(Cl)c3)CC2)c2cc(F)ccc21
4. Cc1ccc2c(c1)C1(CCN(c3cnc(C#N)c(Cl)c3)CC1)C(=O)N2
5. N#Cc1ncc(N2CCC3(CC2)C(=O)Nc2ccc(F)cc23)cc1Cl
6. CN1C(=O)C2(CCN(c3ccc(C#N)c(Cl)c3)CC2)c2cc(F)ccc21

Outgoing:
["95.5%", "110%", "69.5%", "111%", "106%", "100%"]
